The following compounds are shown together with reported inhibition at 0.01 µM values.
system: Human myeloid monocytic leukemia cell line (MV-4-11); test: Inhibition of MV-4-11 cell proliferation (CellTiter luminescent viability); assay type: cell-based; conditions: Homo sapiens, MV4-11; Table IG2, FAK inhibitor-based; MV-4-11, 10 nM, 96 hours; read-out: Inhibition Rate at 10 nM (%)

Here's what some known entries look like.
cpd_smiles=CN(c1cccc(CNc2nc(Nc3ccc(N4CCC(N5CCN(CC6CCN(c7cccc8c7C(=O)N(N7CCC(=O)NC7=O)C8=O)CC6)CC5)CC4)cc3)ncc2C(F)(F)F)c1)S(C)(=O)=O recorded_value="20 to 30%"
cpd_smiles=CN(Cc1ccc2c(c1)CN(N1CCC(=O)NC1=O)C2=O)C1CCN(c2ccc(Nc3ncc(C(F)(F)F)c(NCc4cccc(N(C)S(C)(=O)=O)c4)n3)cc2)CC1 recorded_value="40 to 50%"
cpd_smiles=CN(c1nccnc1CNc1nc(Nc2ccc(N3CCN(Cc4ccc5c(c4)CN(N4CCC(=O)NC4=O)C5=O)CC3)cc2)ncc1C(F)(F)F)S(C)(=O)=O recorded_value="-5 to 0%"
cpd_smiles=CN(c1nccnc1CNc1nc(Nc2ccc(N3CCC(N4CCN(Cc5ccc6c(c5)CN(N5CCC(=O)NC5=O)C6=O)CC4)CC3)cc2)ncc1C(F)(F)F)S(C)(=O)=O recorded_value="20 to 30%"

Please find the next compound below.
Lookup: Report value only: inhibition at 0.01 µM, Human myeloid monocytic leukemia cell line (MV-4-11), CNC(=O)c1ccccc1Nc1cc(Nc2ccc(N3CCN(Cc4ccc5c(c4)CN(N4CCC(=O)NC4=O)C5=O)CC3)cc2OC)ncc1C(F)(F)F
Found: 50 to 60%
